- Assayed system: DLL4 (human, UniProt Q9NR61)
- Sequence (Q9NR61 27-524): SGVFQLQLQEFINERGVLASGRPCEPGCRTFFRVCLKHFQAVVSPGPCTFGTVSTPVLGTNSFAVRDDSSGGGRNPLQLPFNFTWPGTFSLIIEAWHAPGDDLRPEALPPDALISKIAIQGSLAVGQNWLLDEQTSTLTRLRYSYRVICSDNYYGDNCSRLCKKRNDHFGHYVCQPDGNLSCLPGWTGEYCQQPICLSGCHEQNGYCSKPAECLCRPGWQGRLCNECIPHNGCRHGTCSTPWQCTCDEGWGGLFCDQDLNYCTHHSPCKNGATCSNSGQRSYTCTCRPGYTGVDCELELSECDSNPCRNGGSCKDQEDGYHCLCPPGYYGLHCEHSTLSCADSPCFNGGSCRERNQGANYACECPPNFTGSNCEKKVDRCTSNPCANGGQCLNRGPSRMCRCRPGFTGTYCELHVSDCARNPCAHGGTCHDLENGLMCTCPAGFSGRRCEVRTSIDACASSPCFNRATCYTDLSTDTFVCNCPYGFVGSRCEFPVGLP
- Protocol notes: ELISA
Grouping by measured EC50 is done with the following cut points: lower range: < 0.8 nM; middle range: ≥ 0.8 nM and < 2 nM; upper range: ≥ 2 nM

Look over these answered cases.
[
  {
    "Binder": "DVD502 DLL4 arm (antibody, V domains shown, DVD-Ig inner) VH: EVQLQQSGPELVKPGASVKMSCKASGYTFTSYVINWVKQKPGQGLEWIGLINPYNDGTKYNEKFKVKATLTSDKSSSTAYMELSSLTSEDSAVYYCASYYYGSRYYFDYWGQGTTLTVSS VL: DIQMTQSSSYLSVSLGGRVTITCKASDHINNWLAWYQQKPGNAPRLLISGATSLETGVPSRFSGSGSGKDYTLSITSLQTEDVATYYCQQYWSIPLTFGAGTKLELKR",
    "Class assignment": "upper range"
  },
  {
    "Binder": "DVD462 DLL4 arm (antibody, V domains shown, DVD-Ig inner) VH: QVQLVQSGAEVKKPGASVKISCKASGYSFTAYYIHWVKQAPGQGLEWIGYISSYNGATNYNQKFKGRVTFTTDTSTSTAYMELRSLRSDDTAVYYCARDYDYDVGMDYWGQGTLVTVSS VL: DIVMTQSPDSLAVSLGERATISCRASESVDNYGISFMKWFQQKPGQPPKLLIYAASNQGSGVPDRFSGSGSGTDFTLTISSLQAEDVAVYYCQQSKEVPWTFGGGTKVEIKR",
    "Class assignment": "upper range"
  },
  {
    "Binder": "DVD505 DLL4 arm (antibody, V domains shown, DVD-Ig outer) VH: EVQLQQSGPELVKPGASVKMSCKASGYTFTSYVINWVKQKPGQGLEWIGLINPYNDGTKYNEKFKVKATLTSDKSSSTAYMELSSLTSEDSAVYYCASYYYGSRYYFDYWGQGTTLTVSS VL: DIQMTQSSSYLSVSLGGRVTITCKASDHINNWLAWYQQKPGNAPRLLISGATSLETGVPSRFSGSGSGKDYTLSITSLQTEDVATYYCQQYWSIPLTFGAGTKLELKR",
    "Class assignment": "lower range"
  },
  {
    "Binder": "DVD454 DLL4 arm (antibody, V domains shown, DVD-Ig inner) VH: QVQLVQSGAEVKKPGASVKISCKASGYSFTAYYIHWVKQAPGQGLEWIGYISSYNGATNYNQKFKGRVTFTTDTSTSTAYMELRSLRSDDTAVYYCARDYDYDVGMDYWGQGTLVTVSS VL: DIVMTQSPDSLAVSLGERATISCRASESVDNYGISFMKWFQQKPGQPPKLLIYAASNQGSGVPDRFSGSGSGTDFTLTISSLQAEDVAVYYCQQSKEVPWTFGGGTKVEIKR",
    "Class assignment": "middle range"
  }
]

Please report the category associated with DVD525 DLL4 arm (antibody, V domains shown, DVD-Ig outer) VH: EVQLQQSGPELEKPGASVKISCKASGYSFTGYNMNWVKQSNGKSLEWIGNIDPYFGGTNYNQKFKGKATLTVDKSSSTAYMQLKSLTSEDSAVYYCARNYDYDGGCFDYWGQGTTLTVSS VL: QAVVTQESALTTSPGETVTLTCRSSTGAVTTSNYANWVQEKPDHLFTGLIGGTNNRAPGVPARFSGSLIGDKAALTITGAQTEDEAIYFCALWYSNHWVFGGGTKLTVLG , nothing else.
middle range

Please report the category associated with DVD467 DLL4 arm (antibody, DVD-Ig outer) chain 1: EVQLVESGGGLVQPGGSLRLSCAASGFTFTDNWISWVRQAPGKGLEWVGYISPNSGFTYYADSVKGRFTISADTSKNTAYLQMNSLRAEDTAVYYCARDNFGGYFDYWGQGTLVTVSS chain 2: DIQMTQSPSSLSASVGDRVTITCRASQDVSTAVAWYQQKPGKAPKLLIYSASFLYSGVPSRFSGSGSGTDFTLTISSLQPEDFATTYYCQQSYTGTVTFGQGTKVEIKR , nothing else.
lower range

Please report the category associated with DVD507 DLL4 arm (antibody, V domains shown, DVD-Ig outer) VH: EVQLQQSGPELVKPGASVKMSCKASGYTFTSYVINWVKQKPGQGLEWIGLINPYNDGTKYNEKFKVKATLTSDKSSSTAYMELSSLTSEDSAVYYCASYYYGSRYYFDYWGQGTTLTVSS VL: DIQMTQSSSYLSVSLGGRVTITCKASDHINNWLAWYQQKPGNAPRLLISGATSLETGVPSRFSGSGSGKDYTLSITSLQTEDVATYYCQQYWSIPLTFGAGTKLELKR , nothing else.
lower range

Please report the category associated with DVD479 DLL4 arm (antibody, DVD-Ig outer) chain 1: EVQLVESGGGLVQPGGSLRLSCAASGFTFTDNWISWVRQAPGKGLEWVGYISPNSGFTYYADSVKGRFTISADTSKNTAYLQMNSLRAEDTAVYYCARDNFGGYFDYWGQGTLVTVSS chain 2: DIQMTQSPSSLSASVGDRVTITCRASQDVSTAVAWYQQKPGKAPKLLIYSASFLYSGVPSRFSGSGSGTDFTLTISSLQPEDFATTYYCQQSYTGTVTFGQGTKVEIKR , nothing else.
middle range
